Just for reference, patent US20240116985A1 is where these values come from.

- Target Of Assay: full-length beta-Catenin (Uniprot ID P35222) (Homo sapiens (Human)) (UniProt P35222)
- Sequence (P35222 whole entry): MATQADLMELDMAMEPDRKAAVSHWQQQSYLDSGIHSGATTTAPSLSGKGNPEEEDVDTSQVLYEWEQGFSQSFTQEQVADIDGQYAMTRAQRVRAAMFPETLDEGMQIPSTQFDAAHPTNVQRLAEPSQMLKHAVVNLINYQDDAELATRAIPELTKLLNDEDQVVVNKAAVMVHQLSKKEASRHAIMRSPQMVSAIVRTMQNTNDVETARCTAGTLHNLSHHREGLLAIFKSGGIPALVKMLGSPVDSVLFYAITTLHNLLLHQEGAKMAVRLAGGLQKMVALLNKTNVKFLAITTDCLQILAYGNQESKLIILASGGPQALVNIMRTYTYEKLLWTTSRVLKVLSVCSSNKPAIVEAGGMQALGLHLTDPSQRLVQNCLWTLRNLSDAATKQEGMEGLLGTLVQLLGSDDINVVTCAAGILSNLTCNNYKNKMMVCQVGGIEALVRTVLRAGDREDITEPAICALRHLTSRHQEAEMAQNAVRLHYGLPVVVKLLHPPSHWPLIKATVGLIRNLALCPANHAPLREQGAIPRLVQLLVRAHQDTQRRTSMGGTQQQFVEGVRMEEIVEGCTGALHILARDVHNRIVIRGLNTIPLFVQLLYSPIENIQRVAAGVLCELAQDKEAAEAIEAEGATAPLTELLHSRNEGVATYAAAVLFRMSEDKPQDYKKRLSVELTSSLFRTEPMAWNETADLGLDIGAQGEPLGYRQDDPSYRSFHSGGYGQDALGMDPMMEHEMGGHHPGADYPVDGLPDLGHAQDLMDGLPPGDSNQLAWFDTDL
- Method Summary: fluorescence polarization competition; 10 nM full-length beta-catenin + 10 nM 5FAM-TCF4(10-53) probe
pEC50: −log10 of the molar value. Starred links: 1 amine or outer side, 2 acyl side, 3 side chain; linkers in the order of their positions; H or OH if unused. Positions of bridges follow the written chain, without caps; N, C: chain ends. Non-standard residues stand in square brackets, D forms with d. Primed or numbered codes have the meaning given here. *: point of attachment. PyrS2″ = (S)-3-amino-1-((pent-4-en-1-yloxy)carbonyl)pyrrolidine-3-carboxylic acid (stapling residue), C=CCCCOC(=O)N1CC[C@@](N[*:1])(C(=O)[*:2])C1; B5(4) = 2,2-bis(4-pentenyl)glycine = 2-amino-2-(pent-4-en-1-yl)hept-6-enoic acid (stitching residue), C=CCCCC(CCCC=C)(N[*:1])C(=O)[*:2]; B5(5) = 2,2-bis(4-pentenyl)glycine, 2-amino-2-(pent-4-en-1-yl)hept-6-enoic acid (stitching residue), C=CCCCC(CCCC=C)(N[*:1])C(=O)[*:2]; TfeGA = (S)-2-amino-3-((carboxymethyl)(2,2,2-trifluoroethyl)amino)propanoic acid, O=C([C@H](CN(CC(=O)[*:3])CC(F)(F)F)N[*:1])[*:2]; PyrS2 = (S)-3-amino-1-((pent-4-en-1-yloxy)carbonyl)pyrrolidine-3-carboxylic acid, C=CCCCOC(=O)N1CC[C@@](N[*:1])(C(=O)[*:2])C1; B5(22) = 2-amino-2-(pent-4-en-1-yl)hept-6-enoic acid (two alkene side chains), C=CCCCC(CCCC=C)(N[*:1])C(=O)[*:2]; B5(25) = 2-amino-2-(pent-4-en-1-yl)hept-6-enoic acid (stitching residue), C=CCCCC(CCCC=C)(N[*:1])C(=O)[*:2]; B5 = 2-amino-2-(pent-4-en-1-yl)hept-6-enoic acid, C=CCCCC(CCCC=C)(N[*:1])C(=O)[*:2]; Abu(4,4,4-F3) = N[C@@H](CC(F)(F)F)C(=O)O; Bta = N[C@@H](Cc1csc2ccccc12)C(=O)O; αAllylPro = C=CC[C@@]1(C(=O)O)CCCN1; tBuAla = CC(C)(C)C[C@H](N)C(=O)O; 3Thi = N[C@@H](Cc1ccsc1)C(=O)O; S8 = C=CCCCCCC[C@](C)(N)C(=O)O; hSer = N[C@@H](CCO)C(=O)O; Abu = CC[C@H](N)C(=O)O; Dap = NC[C@H](N)C(=O)O; Ms = CS(=O)(=O)*
Please enter true (1) where pEC50 is greater than or equal to 6, and false (0) where it is lower.

Below are worked cases with known answers.
1. Ac-[αAllylPro]D[tBuAla][B5(5)]D[TfeGA]AAFN[PyrS2″][3Thi][Bta][dT]-NH2 (staple 1-4, 4-11; also: staple isomer composition, later-eluting HPLC peak) [I-949]
false (0)
2. Ac-[αAllylPro]D[tBuAla][B5(22)]D[TfeGA]AAFN[PyrS2][3Thi][Bta]S-NH2 (staple 1-4, 4-11; also: staple isomer composition, earlier-eluting HPLC peak) [I-940]
false (0)
3. Ac-[αAllylPro]DI[B5(4)]DEAAFN[S8][3Thi][Bta]H-NH2 (staple 1-4, 4-11) [I-517]
true (1)
4. Ac-[αAllylPro]D[Abu(4,4,4-F3)][B5(4)]DEAAFQ[S8]F[Bta]H-NH2 (staple 1-4, 4-11) [I-504]
true (1)
5. Ac-[αAllylPro]D[tBuAla][B5(25)]D[TfeGA]AAFF[PyrS2″][3Thi][Bta]S-NH2 (staple 1-4, 4-11; not fully specified) [I-963]
true (1)
6. Ac-[αAllylPro]D[tBuAla][B5(25)]D[TfeGA]AAFF[PyrS2″][3Thi][Bta]S-NH2 (staple 1-4, 4-11; also: earlier-eluting HPLC staple isomer) [I-962]
true (1)
7. Ac-[αAllylPro]D[tBuAla][B5]D[TfeGA]AAF[hSer][PyrS2][3Thi][Bta]S-NH2 (staple 1-4, 4-11; also: earlier-eluting staple isomer composition) [I-958]
true (1)
8. Ac-[αAllylPro]D[tBuAla][B5(22)]D[TfeGA]AAFN[PyrS2][3Thi][Bta]S-NH2 (staple 1-4, 4-11; also: staple isomer composition, later-eluting HPLC peak) [I-941]
false (0)
9. Ac-[αAllylPro]DA[B5(4)]DEAAFQ[S8]F[Bta][Abu]-NH2 (staple 1-4, 4-11) [I-509]
true (1)

Okay, now this binder:
Data request: Hi, just wondering whether Ac-[αAllylPro]DA[B5(4)][Dap](Ms)EAAFN[S8]F[Bta]Q-NH2 (staple 1-4, 4-11) [I-530] shows pEC50 of 6 or higher.
Data returned: false (0)
